The values you see were collected from patent US20220251095A1.

Target: coagulation factor XIa protease (FXIa) (Homo sapiens, UniProt P03951)
Sequence (P03951 388-625 limits assumed): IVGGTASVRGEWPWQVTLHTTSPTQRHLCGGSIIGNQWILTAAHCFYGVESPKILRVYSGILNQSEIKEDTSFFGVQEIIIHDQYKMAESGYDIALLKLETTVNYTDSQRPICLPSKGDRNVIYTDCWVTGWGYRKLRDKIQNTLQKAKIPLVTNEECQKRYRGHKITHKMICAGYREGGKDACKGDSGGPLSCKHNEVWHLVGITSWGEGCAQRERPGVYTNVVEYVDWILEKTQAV
Sequence (P03951 19-387 partner limits assumed): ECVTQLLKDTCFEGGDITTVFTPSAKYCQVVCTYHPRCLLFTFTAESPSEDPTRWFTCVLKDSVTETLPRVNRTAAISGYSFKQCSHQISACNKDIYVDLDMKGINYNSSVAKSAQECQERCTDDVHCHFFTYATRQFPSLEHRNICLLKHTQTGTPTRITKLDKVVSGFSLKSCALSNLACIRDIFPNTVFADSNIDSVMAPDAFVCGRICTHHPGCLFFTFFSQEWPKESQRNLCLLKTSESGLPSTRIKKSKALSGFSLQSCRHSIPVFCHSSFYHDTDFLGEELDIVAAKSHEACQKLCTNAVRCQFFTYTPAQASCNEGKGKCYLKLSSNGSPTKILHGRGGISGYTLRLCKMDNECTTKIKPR
endpoint-name: IC50 (nM)

Worked examples follow.
> print(dat)
                                 mol.smiles  endpoint.name  quantitative.readout
1  Nc1ccc(-c2nc(F)c([C@@H]3[C@H]4C[C@H]4c4cc(-c5cc(Cl)ccc5-n5cnnn5)cc(=O)n43)[nH]2)c(F)n1           IC50                  3.34
2  Nc1ccc(-c2cnc([C@@H]3[C@H]4C[C@H]4c4cc(-c5cc(Cl)ccc5-n5cnnn5)cc(=O)n43)[nH]2)c(F)c1F           IC50                  8.65
3  Nc1n[nH]c2cc(-c3[nH]c([C@@H]4[C@H]5C[C@H]5c5cc(-c6cc(Cl)ccc6-n6cc(C(F)F)nn6)cc(=O)n54)nc3F)ccc12           IC50                  0.83

a: Nc1noc2cc(-c3[nH]c([C@@H]4[C@H]5C[C@H]5c5cc(-c6cc(Cl)ccc6-n6cc(Cl)nn6)cc(=O)n54)nc3F)ccc12
b: Nc1ccc(-c2[nH]c([C@@H]3[C@H]4C[C@H]4c4cc(-c5cc(Cl)ccc5-n5cnnn5)cc(=O)n43)nc2F)cc1C(F)(F)F
Query :: // max by IC50 over [ a , b ] Lab note: record the label of whichever item you select.
Result :: b
